- ASSAY_TARGET: MHC-II DRB1*15:01 (Homo sapiens, UniProt P01903+P01911)
- Construct: purchased ProImmune
- RUN_DESCRIPTION: Cell-free REVEAL class II stability assay
- TEST_PARAMETERS: half-life of peptide-MHC-II complex (h, capped at 120) x Binding Score / 100, conformational ELISA
Parameter threshold = 500. Response is 1 when Stability Index meets or exceeds it, else 0.

Answered cases to consult:
[[record]]
seq_string = "SDPRCLTRYYSSFVN [synthetic wild type FVIII 15 mer peptide]"
label_class = 0

[[record]]
seq_string = "PPLLTRYLRIHPQSW [synthetic wild type FVIII 15 mer peptide]"
label_class = 0

[[record]]
seq_string = "YISQFIIMYSLDGKK [synthetic wild type FVIII 15 mer peptide]"
label_class = 1

[[record]]
seq_string = "IIMYSLDGKKWQTYR [synthetic wild type FVIII 15 mer peptide]"
label_class = 1


I'd appreciate it if you could say whether PLLTRYLRIHPQSWV [synthetic wild type FVIII 15 mer peptide] has Stability Index at least equal to 500. 1

Please check the record MKVTGVTTQGVKSLL [synthetic wild type FVIII 15 mer peptide, region of ns-SNP M2238V] and state if its Stability Index is at or above 500. 0

Can SQFIIMYSLDGKKWQ [synthetic wild type FVIII 15 mer peptide] be said to have Stability Index at or above 500? 1

Determine whether this sequence has Stability Index no lower than 500: AWRPQVNNPKEWLQV [synthetic wild type FVIII 15 mer peptide] 0

Does QKFSSLYISQFIIMY [synthetic wild type FVIII 15 mer peptide] have a reported Stability Index of at least 500? 0
